Reference for the values: patent US9034886B2

# Tested on: Hut78 T lymphocytic leukemia cells
# EXPERIMENT_SUMMARY: In vitro anti-proliferative effect, CCK-8 method, Hut78
# Type: cell-based
# STUDY_CONDITIONS: Homo sapiens, HuT78; 10 μM; read-out: Hut-78 (inhibition %)
MEASUREMENT_KIND: inhibition at 10 µM (%)
Write the number in % without appending the unit.

Worked examples follow.
| SMILES_STRUCTURE | inhibition at 10 µM [%] |
| --- | --- |
| COc1cccc2c(Nc3ccc(C(=O)Nc4cc(F)ccc4N)cc3)ncnc12 | 8.1 |
| Nc1ccccc1NC(=O)c1ccc(Nc2ncnc3ccc(F)cc23)cc1 | 62.5 |
| COc1cccc2ncnc(Nc3ccc(C(=O)Nc4ccncc4N)cc3)c12 | 17.5 |
| Nc1ccc(F)cc1NC(=O)c1ccc(CNc2ncnc3ccccc23)cc1 | 79.4 |

Q: Need inhibition at 10 µM of `CC(=O)Nc1ccc2ncnc(NCc3ccc(C(=O)Nc4ccncc4N)cc3)c2c1` , thanks.
Ans: 9.9

Q: Need inhibition at 10 µM of `COc1cc2ncnc(Nc3ccc(C(=O)Nc4cc(-c5ccccc5)ccc4N)cc3)c2cc1OC` , thanks.
Ans: 15.5

Q: Need inhibition at 10 µM of `Nc1ccccc1NC(=O)c1ccc(CNc2ncnc3ccccc23)cc1` , thanks.
Ans: 69.2

Q: Need inhibition at 10 µM of `COc1cc2ncnc(Nc3ccc(C(=O)Nc4ccccc4N)cc3)c2cc1OCCCN1CCOCC1` , thanks.
Ans: 73.4

###

# Test system: A549 human lung cancer cells
# EXPERIMENT_SUMMARY: In vitro anti-proliferative effect, CCK-8 method, A549
# Format: cell-based
# STUDY_CONDITIONS: Homo sapiens, A549; 100 μM
Each record gets a class by inhibition at 100 µM: lowest: < 20%; middle: ≥ 20% and < 70%; highest: ≥ 70%

| SMILES_STRUCTURE | ASSIGNED_LABEL |
| --- | --- |
| COc1cc2ncnc(NCc3ccc(C(=O)Nc4cc(-c5cccs5)ccc4N)cc3)c2cc1OC | highest |
| COCCOc1cc2ncnc(Nc3ccc(C(=O)Nc4ccncc4N)cc3)c2cc1OCCOC | middle |
| COc1cc2ncnc(Nc3ccc(C(=O)Nc4cc(-c5cccs5)ccc4N)cc3)c2cc1OC | lowest |
| Nc1ccccc1NC(=O)c1ccc(Nc2ncnc3ccc([N+](=O)[O-])cc23)cc1 | lowest |
| Nc1cnccc1NC(=O)c1ccc(CNc2ncnc3ccccc23)cc1 | middle |

Q: Class label required: `Nc1ccccc1NC(=O)c1ccc(Nc2ncnc3cc(F)ccc23)cc1`
Ans: middle

Q: Class label required: `COc1cccc2c(Nc3ccc(C(=O)Nc4ccccc4N)cc3)ncnc12`
Ans: middle

Q: Class label required: `CS(=O)(=O)CCNCc1ccc(-c2ccc3ncnc(Nc4ccc(C(=O)Nc5ccccc5N)cc4)c3c2)o1`
Ans: middle

Q: Class label required: `COCCOc1cc2ncnc(Nc3ccc(C(=O)Nc4ccccc4N)cc3)c2cc1OCCOC`
Ans: lowest

Q: Class label required: `CC(=O)Nc1ccc2ncnc(NCc3ccc(C(=O)Nc4cc(-c5ccco5)ccc4N)cc3)c2c1`
Ans: lowest

###

# Tested on: PC-3 human prostate cancer
# EXPERIMENT_SUMMARY: In vitro anti-proliferative effect, CCK-8 method, PC-3
# Format: cell-based
# STUDY_CONDITIONS: Homo sapiens; PC-3 cell strain, compound at 100 μM, CCK-8 method
Form field: inhibition at 100 µM (one value per entry).
Write the number in % without appending the unit.

Worked examples follow.
| SMILES_STRUCTURE | MEASUREMENT_KIND | RESULT_NUMBER |
| --- | --- | --- |
| CC(=O)Nc1ccc2ncnc(NCc3ccc(C(=O)Nc4ccncc4N)cc3)c2c1 | inhibition at 100 µM | 12.8 |
| CC(=O)Nc1ccc2ncnc(NCc3ccc(C(=O)Nc4ccccc4N)cc3)c2c1 | inhibition at 100 µM | -2.4 |
| Nc1ccc(F)cc1NC(=O)c1ccc(Nc2ncnc3c(F)cccc23)cc1 | inhibition at 100 µM | 84.4 |
| CS(=O)(=O)CCNCc1ccc(-c2ccc3ncnc(Nc4ccc(C(=O)Nc5ccccc5N)cc4)c3c2)o1 | inhibition at 100 µM | 61 |
| CC(=O)Nc1ccc2ncnc(NCc3ccc(C(=O)Nc4cc(-c5ccco5)ccc4N)cc3)c2c1 | inhibition at 100 µM | 14.8 |
| Nc1ccccc1NC(=O)c1ccc(Nc2ncnc3ccc(F)cc23)cc1 | inhibition at 100 µM | 61.3 |
| COc1cccc2c(Nc3ccc(C(=O)Nc4cc(F)ccc4N)cc3)ncnc12 | inhibition at 100 µM | 57.4 |
| Nc1ccc(F)cc1NC(=O)c1ccc(Nc2ncnc3ccccc23)cc1 | inhibition at 100 µM | 36.9 |
| Nc1ccccc1NC(=O)c1ccc(CNc2ncnc3c(F)cccc23)cc1 | inhibition at 100 µM | 89.4 |
| COc1cccc2ncnc(Nc3ccc(C(=O)Nc4ccccc4N)cc3)c12 | inhibition at 100 µM | 49.8 |

Q: Need inhibition at 100 µM of `Nc1cnccc1NC(=O)c1ccc(Nc2ncnc3ccccc23)cc1` , thanks.
Ans: 92.4

Q: Need inhibition at 100 µM of `COc1cc2ncnc(NCc3ccc(C(=O)Nc4cc(-c5cccs5)ccc4N)cc3)c2cc1OC` , thanks.
Ans: 38.8

Q: Need inhibition at 100 µM of `COC(=O)Cc1ccc2ncnc(Nc3ccc(C(=O)Nc4ccccc4N)cc3)c2c1` , thanks.
Ans: 69

Q: Need inhibition at 100 µM of `COc1ccc2ncnc(Nc3ccc(C(=O)Nc4cc(F)ccc4N)cc3)c2c1` , thanks.
Ans: 56

Q: Need inhibition at 100 µM of `COc1cc2ncnc(Nc3ccc(C(=O)Nc4cc(-c5cccs5)ccc4N)cc3)c2cc1OC` , thanks.
Ans: 40.2

Q: Need inhibition at 100 µM of `COc1cc2ncnc(Nc3ccc(C(=O)Nc4cc(F)ccc4N)cc3)c2cc1OCCCN1CCOCC1` , thanks.
Ans: 72.2

Q: Need inhibition at 100 µM of `Nc1ccccc1NC(=O)c1ccc(Nc2ncnc3ccc([N+](=O)[O-])cc23)cc1` , thanks.
Ans: 18.8

Q: Need inhibition at 100 µM of `Nc1ccccc1NC(=O)c1ccc(Nc2ncnc3ccccc23)cc1` , thanks.
Ans: 91.5

Q: Need inhibition at 100 µM of `COc1cccc2c(Nc3ccc(C(=O)Nc4ccccc4N)cc3)ncnc12` , thanks.
Ans: 19.3

Q: Need inhibition at 100 µM of `Nc1ccccc1NC(=O)c1ccc(Nc2ncnc3cc(F)ccc23)cc1` , thanks.
Ans: 48.5

Q: Need inhibition at 100 µM of `Nc1ccc(F)cc1NC(=O)c1ccc(CNc2ncnc3ccccc23)cc1` , thanks.
Ans: 94.5

Q: Need inhibition at 100 µM of `COc1cc2ncnc(Nc3ccc(C(=O)Nc4cc(-c5ccco5)ccc4N)cc3)c2cc1OC` , thanks.
Ans: 22.1

Q: Need inhibition at 100 µM of `Nc1cnccc1NC(=O)c1ccc(CNc2ncnc3ccccc23)cc1` , thanks.
Ans: 52.6

Q: Need inhibition at 100 µM of `COCCOc1cc2ncnc(Nc3ccc(C(=O)Nc4ccncc4N)cc3)c2cc1OCCOC` , thanks.
Ans: 3.4

Q: Need inhibition at 100 µM of `Nc1ccccc1NC(=O)c1ccc(CNc2ncnc3ccccc23)cc1` , thanks.
Ans: 59.9

Q: Need inhibition at 100 µM of `COc1cc2ncnc(Nc3ccc(C(=O)Nc4cc(-c5ccccc5)ccc4N)cc3)c2cc1OC` , thanks.
Ans: 63.7

Q: Need inhibition at 100 µM of `CS(=O)(=O)CCNCc1ccc(-c2ccc3ncnc(Nc4ccc(C(=O)Nc5cc(F)ccc5N)cc4)c3c2)o1` , thanks.
Ans: 75.5

Q: Need inhibition at 100 µM of `COc1cc2ncnc(Nc3ccc(C(=O)Nc4ccccc4N)cc3)c2cc1OCCCN1CCOCC1` , thanks.
Ans: 67.1
